# Tested on: HIV-1
# METHOD: HIV maturation (budding) in virus-like particle assay, HIV-1 p24 antigen ELISA
# Type: cell-based
# CONDITION SET: Human immunodeficiency virus 1, read-out: Budding (3 μM)
Please mark TRUE if the recorded activity at 3 µM is equal to or greater than 60%, and FALSE if it falls below.

- MOLECULE: "CCCCCCOc1ccc(C=C2C(=O)NC(=S)NC2=O)cc1"
  ASSIGNED LABEL: "FALSE"
- MOLECULE: "O=C(NC(C(Cl)(Cl)Cl)S(=O)(=O)c1ccccc1)c1ccc(Cl)cc1Cl (stereo not drawn)"
  ASSIGNED LABEL: "FALSE"

Lookup: Determine whether this molecule has activity at 3 µM no lower than 60%: COc1ccc(N2C(=O)NC(=O)/C(=C\C=C\c3ccccc3)C2=O)cc1
Found: TRUE

Lookup: Could you please find out whether N=C1NC(=O)/C(=C\c2ccc(-c3ccc(I)cc3)o2)S1 has activity at 3 µM that meets 60% or exceeds it?
Found: TRUE

====

# MEASURED ON: c-cbl (Homo sapiens, UniProt P22681)
# METHOD: Selectivity (% A in 1 μM), ubiquitin ligase activity of c-cbl
# Type: biochemical
# CONDITION SET: % activity at 1 μM compound; control is related to 100% activity; HTS protocol
READOUT KIND: remaining activity at 1 µM (%)
Entry rule: numbers only, all in %.

Take a look at these entries with their results.
- SMILES STRUCTURE: "Cc1cc(I)ccc1NCn1nnc2ccccc21"
  UNIT TEXT: "%"
  remaining activity at 1 µM: 117
- SMILES STRUCTURE: "N/N=C\\c1ccc(-c2cccs2)s1"
  UNIT TEXT: "%"
  remaining activity at 1 µM: 93
- SMILES STRUCTURE: "O=[N+]([O-])c1ccc2c(c1)Cc1cc(/N=C/c3ccc(Br)cc3)ccc1-2"
  UNIT TEXT: "%"
  remaining activity at 1 µM: 92
- SMILES STRUCTURE: "O=C(/C=C/c1cccnc1)c1ccc(C(=O)/C=C/c2cccnc2)cc1"
  UNIT TEXT: "%"
  remaining activity at 1 µM: 111

Form: compound = Oc1c(Br)cc(Br)cc1/C=N/c1nc2ccccc2s1 ; remaining activity at 1 µM = 134

====

# MEASURED ON: POSH (Homo sapiens, UniProt Q7Z6J0)
# Construct: GST-POSH lot NB81/p.118 3.6 mg/ml; fused on or other part: GST tag, used for detection with anti-GST XL665
# METHOD: IC50 assay procedure: GST-POSH auto-ubiquitination, homogeneous time-resolved fluorescence (Ub-cryptate / anti-GST XL665)
# Type: biochemical
# CONDITION SET: ubiquitin ligase activity of POSH; GST-POSH 33 nM, 30 min preincubation
READOUT KIND: pIC50
Formally, pIC50 is defined as -log10 of the concentration c, with c in mol/L.

Recorded results for 3 compounds are shown here.
- COMPOUND: "COc1ccc(C(=O)CC2=C(O)C(=O)c3ccccc3C2=O)cc1"
  pIC50: 6.00
- COMPOUND: "CN(C)c1ccc(/C=C2/C(=O)NC(=O)N(C3CCCCC3)C2=O)cc1"
  pIC50: 6.05
- COMPOUND: "CC(=C\\c1ccccc1)/C=C1/NC(=S)NC1=O"
  pIC50: 5.70

Note to self: pIC50 recorded for O=c1/c(=C/c2ccc(N3CCOCC3)cc2)sc2nc3ccccc3n12 was 6.30

The compound listed as O=C1N=C(c2ccccc2)S/C1=C/c1ccc2ccccc2c1 shows pIC50 equal to 6.00

Consider O=c1nc(-c2ccc(Br)cc2)cc(-c2ccc([N+](=O)[O-])cc2)[nH]1 . Its measured pIC50 is 6.52

====

# MEASURED ON: UniProtKB Q00987
# Sequence (Q00987 whole entry): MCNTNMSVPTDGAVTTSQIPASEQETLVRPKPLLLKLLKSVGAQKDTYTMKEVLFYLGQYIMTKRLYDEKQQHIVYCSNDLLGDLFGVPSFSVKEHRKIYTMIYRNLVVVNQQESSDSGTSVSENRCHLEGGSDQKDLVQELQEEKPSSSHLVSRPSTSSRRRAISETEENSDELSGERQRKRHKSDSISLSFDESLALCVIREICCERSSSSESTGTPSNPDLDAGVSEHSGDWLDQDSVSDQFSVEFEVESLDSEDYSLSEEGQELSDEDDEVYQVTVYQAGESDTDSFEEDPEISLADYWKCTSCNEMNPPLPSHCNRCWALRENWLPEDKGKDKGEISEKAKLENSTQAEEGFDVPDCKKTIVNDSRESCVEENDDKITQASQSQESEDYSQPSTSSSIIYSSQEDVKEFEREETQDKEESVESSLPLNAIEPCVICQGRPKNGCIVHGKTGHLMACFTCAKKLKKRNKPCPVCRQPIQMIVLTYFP
# METHOD: Selectivity (% A in 1 μM), ubiquitin ligase activity of Hmdm2
# Format: biochemical
# CONDITION SET: % activity at 1 μM compound; control is related to 100% activity; HTS protocol; read-out: Selectivity (% A* in 1 μM) Hmdm2
READOUT KIND: remaining activity at 1 µM (%)
Number only, in %; omit the unit.

- MOLECULE: "COc1cc(C2Nc3ccccc3NC3=C2C(=O)CC(C)(C)C3)cc(Br)c1O (stereo not shown)"
  UNIT TEXT: "%"
  remaining activity at 1 µM: 97
- MOLECULE: "Cc1ccc(C(=O)NN=C2CCC(=NNC(=O)c3ccc(C)cc3)CC2)cc1"
  UNIT TEXT: "%"
  remaining activity at 1 µM: 106
- MOLECULE: "O=C1N=C(c2ccccc2)S/C1=C/c1ccc2ccccc2c1"
  UNIT TEXT: "%"
  remaining activity at 1 µM: 106
- MOLECULE: "CC(=C\\c1ccccc1)/C=C1/SC(=N)NC1=O"
  UNIT TEXT: "%"
  remaining activity at 1 µM: 102
- MOLECULE: "CN(C)c1ccc(/C=C2/C(=O)NC(=O)N(C3CCCCC3)C2=O)cc1"
  UNIT TEXT: "%"
  remaining activity at 1 µM: 102
- MOLECULE: "O=C(Cc1ccccc1)N1N=CCC1(O)c1ccc(F)cc1 (stereo not shown)"
  UNIT TEXT: "%"
  remaining activity at 1 µM: 103

Now look at this one.
The measured remaining activity at 1 µM associated with Cc1ccc(/C=N/c2ccc(Cl)cc2)o1 reads 107

====

# Test system: E2 protein
# Type: biochemical
# CONDITION SET: % activity at 1 μM compound; control is related to 100% activity; HTS protocol
compounds and their reported Selectivity (% A* in 1 μM) E2
The figure you give is taken to be in %; do not add the unit.

Example compounds with recorded Selectivity (% A* in 1 μM) E2:
- COMPOUND: "CCOC(=O)c1c(/N=C/c2cc(Br)ccc2O)sc2c1CCCC2"
  MEASUREMENT: 57
- COMPOUND: "O=C1CC(NNc2ccccc2)C(=O)N1c1cccc(Cl)c1 (stereo not shown)"
  MEASUREMENT: 91
- COMPOUND: "COc1cc(/C=C2\\SC(=O)NC2=O)ccc1OCc1ccc(Cl)cc1Cl"
  MEASUREMENT: 93
- COMPOUND: "COc1ccc(Nc2ccc(O)c3c2C(=O)c2ccccc2C3=O)cc1"
  MEASUREMENT: 59
- COMPOUND: "O=C(Cc1ccccc1)N1N=CCC1(O)c1ccc(F)cc1 (stereo not shown)"
  MEASUREMENT: 49

// O=C1N=C(c2ccccc2)S/C1=C/c1ccc(-c2cccc([N+](=O)[O-])c2)o1 : Selectivity (% A* in 1 μM) E2 value = 82

Selectivity (% A* in 1 μM) E2 in this record for Oc1c(Br)cc(Br)cc1/C=N/c1nc2ccccc2s1 : 94

Query O=C1N=C(c2ccccc2)S/C1=C/c1ccc2ccccc2c1 yields Selectivity (% A* in 1 μM) E2 of 82

For reference, reported Selectivity (% A* in 1 μM) E2 for COc1ccc(CNc2cccc(N(C)C)c2)cc1 stands at 88

Query COc1ccccc1/C=C1\N=C(c2ccccc2Cl)OC1=O yields Selectivity (% A* in 1 μM) E2 of 43

Sure, the documented Selectivity (% A* in 1 μM) E2 for O=[N+]([O-])c1ccc2c(c1)Cc1cc(/N=C/c3ccc(Br)cc3)ccc1-2 is 98

====

# MEASURED ON: POSH (Homo sapiens, UniProt Q7Z6J0)
# Sequence (Q7Z6J0 1-269 limits assumed): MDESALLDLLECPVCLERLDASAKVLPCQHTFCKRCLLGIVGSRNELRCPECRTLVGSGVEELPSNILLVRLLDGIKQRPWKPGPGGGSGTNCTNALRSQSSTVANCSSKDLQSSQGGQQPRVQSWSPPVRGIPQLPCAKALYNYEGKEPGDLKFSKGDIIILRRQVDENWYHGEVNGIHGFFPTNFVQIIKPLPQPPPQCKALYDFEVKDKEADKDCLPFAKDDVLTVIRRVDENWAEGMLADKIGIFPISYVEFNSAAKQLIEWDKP
READOUT KIND: pIC50
Bear in mind: pIC50 is minus log10 of a mol/L concentration; give just that figure.

# count of solved cases: 6
- COMPOUND: "S=C(c1ccc(-c2cc(Cl)ccc2Cl)o1)N1CCCCC1"
  pIC50: 6.30
- COMPOUND: "Oc1c(Br)cc(Cl)cc1/C=N/c1ccccc1Br"
  pIC50: 6.10
- COMPOUND: "CCCOC(=O)c1ccc(/N=C/c2c(O)ccc3ccccc23)cc1"
  pIC50: 6.15
- COMPOUND: "COc1cc(C2Nc3ccccc3NC3=C2C(=O)CC(C)(C)C3)cc(Br)c1O (stereo not shown)"
  pIC50: 6.10
- COMPOUND: "CCOC(=O)c1c(/N=C/c2cc(Br)ccc2O)sc2c1CCCC2"
  pIC50: 6.00
- COMPOUND: "COc1cc(N/C=C2/C(=O)NC(=S)N(c3cccc(C)c3)C2=O)cc(OC)c1"
  pIC50: 6.00

# pIC50 (compound: COc1ccc(/C=N/c2ccc(Nc3ccccc3)cc2)c2ccccc12 ) is 6.30

Lab book: pIC50 of Oc1c(Br)cc(Br)cc1/C=N/c1nc2ccccc2s1 noted as 6.15

Short answer for COc1ccc(N2C(=O)NC(=O)/C(=C\C=C\c3ccccc3)C2=O)cc1 : pIC50 was 6.30

compound O=C1\C(=C/C=C/C=C/Nc2ccccc2)SC(=S)N1c1ccccc1 , pIC50 observed: 6.00

For reference, reported pIC50 for Cc1ccc(/C=N/c2ccc(C(N)=O)cc2)o1 stands at 5.82
